STUDY TARGET: T1, S100A11 (human, UniProt P31949 1-105)
T1 sequence (looked up): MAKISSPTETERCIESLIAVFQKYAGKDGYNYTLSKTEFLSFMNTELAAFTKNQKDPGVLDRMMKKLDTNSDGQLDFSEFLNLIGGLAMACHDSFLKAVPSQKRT
MEASUREMENT NOTES: other fluorescence titration
Ends that are not written are not given here.

>  <BINDER>
Ac-AMVSEFLKQAWFIE [Annexin I peptide]

>  <Kd, µM>
5

$$$$
